- test_target: human RIP1 kinase domain (2-375) (Homo sapiens (Human), UniProt Q13546)
- Sequence (Q13546 2-375): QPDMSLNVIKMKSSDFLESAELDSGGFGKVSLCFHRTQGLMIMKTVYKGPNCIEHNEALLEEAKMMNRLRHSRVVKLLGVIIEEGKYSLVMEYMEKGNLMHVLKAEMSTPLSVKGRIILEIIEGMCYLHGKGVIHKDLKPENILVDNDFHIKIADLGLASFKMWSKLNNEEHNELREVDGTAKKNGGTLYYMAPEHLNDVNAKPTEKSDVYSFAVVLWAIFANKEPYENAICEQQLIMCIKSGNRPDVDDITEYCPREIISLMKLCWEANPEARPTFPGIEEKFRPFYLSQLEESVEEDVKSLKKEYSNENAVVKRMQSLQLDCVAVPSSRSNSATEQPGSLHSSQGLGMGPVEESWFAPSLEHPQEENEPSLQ
- experiment_summary: biochemical
- Type: biochemical
- condition_description: tight-binding apparent inhibition constant; human RIP1 kinase domain (2-375) 50 nM, 50 uM ATP, 2 hours; read-out: Ki
measured_endpoint: pKi
Scale note: pKi = -log10(concentration in M).

Provide only the value of recorded pKi for Cc1cc2n(n1)CC[C@H](NC(=O)c1nnn(Cc3ccccc3)n1)C(=O)N2C 8.30

Quote pKi reported for Cc1ncn2c1N(C)C(=O)[C@H](NC(=O)c1ncn(Cc3c(F)cccc3F)n1)CC2 please. 7.33

Let me know recorded pKi for CN1C(=O)[C@@H](NC(=O)c2nc3cccc(-c4cnn(C)c4)n3n2)CCn2nccc21 , thanks. 6.33

Output measured pKi for this item: CC(C)[C@@H]1CCCc2nc(C(=O)N[C@H]3COc4ccccc4N(C)C3=O)nn21 (racemic) 7.87

Please give the documented pKi of CCc1cccc2nc(C(=O)N[C@H]3CCn4nccc4N(C)C3=O)nn12 6.57

Give pKi for CCC[C@H]1CCCc2nc(C(=O)N[C@H]3COc4ccccc4N(C)C3=O)nn21 (racemic) 7.90

Fill in reported pKi for this entry: O=C(N[C@H]1CCc2cc(F)cc(F)c2NC1=O)c1nc2n(n1)[C@@H](c1ccccc1)CC2 8.30

Quick one: give measured pKi for CN1C(=O)[C@H](NC(=O)c2ncn(Cc3ccccc3F)n2)CCn2cncc21 7.46

// Input: CN1C(=O)[C@@H](NC(=O)c2nc3cccc(-c4c(F)cccc4F)n3n2)CCn2nccc21 . Output its pKi only. 8.22

Note pKi for the compound shown: Cc1cc2n(n1)CC[C@H](NC(=O)c1ncn(C[C@H]3C[C@@H](C(F)(F)F)C3)n1)C(=O)N2C 6.74

Specify measured pKi for CN1C(=O)[C@@H](NC(=O)c2nc3n(n2)C(C2CCCCC2)CCC3)CCn2nccc21 (stereo partly drawn) . 6.55

Determine from records and report pKi for CN1C(=O)[C@@H](NC(=O)c2ncn(Cc3ccccc3)n2)CCn2nc(C[C@@H]3CC3(F)F)cc21 8.01

Let me know recorded pKi for CN1C(=O)[C@@H](NC(=O)c2nc3n(n2)CCC32CCOCC2)COc2ccccc21 , thanks. 6.62

// Input: CN1C(=O)[C@H](NC(=O)c2nnc(Cc3ccc(F)cc3)[nH]2)CCn2nc(C(F)(F)F)cc21 . Output its pKi only. 6.68

For Cc1nc(C(=O)N[C@H]2CCn3nccc3N(C)C2=O)nn1Cc1ccccc1 , write its pKi. 7.48

Determine from records and report pKi for CN1C(=O)[C@@H](NC(=O)c2nc3n(n2)CCOC32CCCC2)COc2ccccc21 7.70

For the compound CC[C@]1(C)OCc2cnc(C(=O)N[C@H]3COc4ccccc4N(C)C3=O)nc21 (racemic) , report pKi. 7.67

Consider the compound CCC[C@@]1(C)OCc2cnc(C(=O)N[C@H]3COc4cc(F)cc(F)c4NC3=O)nc21 and give its recorded pKi. 7.85

Please give measured pKi of the following entry: Cc1cc2n(n1)CC[C@H](NC(=O)c1ncc3c(n1)[C@@](C)(CC(F)(F)F)OC3)C(=O)N2C (racemic) 5.96

Give pKi for CN1C(=O)C(NC(=O)c2ncn(Cc3ccccc3)n2)CCn2nc(CN3CCOCC3)cc21 (stereo not drawn) 6.52

Name the recorded pKi of the item CC(C)[C@H]1CCCc2nc(C(=O)N[C@H]3CCc4cc(F)cc(F)c4NC3=O)nn21 (single isomer, unassigned) in your answer. 6.76

Return pKi (reported value) for this compound: CCC[C@@H]1CCCc2nc(C(=O)N[C@H]3COc4cc(C)cc(F)c4NC3=O)nn21 (single isomer, unassigned) 8.03

Give me measured pKi, please, for this compound: Cc1cc2n(n1)CC[C@H](NC(=O)c1nc3n(n1)CCOC31CCCC1)C(=O)N2C 6.39

Name the recorded pKi of the compound listed here: Cc1cc2n(n1)CC[C@H](NC(=O)c1ncc3c(n1)C1(CCCC1)OC3)C(=O)N2C 6.96

Specify reported pKi for the compound shown: O=C(N[C@H]1COc2cc(F)cc(F)c2NC1=O)c1nc2n(n1)[C@@H](C(F)(F)F)CCC2 (single isomer, unassigned) 6.36

Hello, please tell me recorded pKi for this one: Cc1cc2n(n1)CC[C@H](NC(=O)c1ncn(Cc3ccccc3C)n1)C(=O)N2C 7.77

Give me measured pKi, please, for this compound: CCC1CCCc2nc(C(=O)N[C@H]3COc4ccccc4N(C)C3=O)nn21 (stereo partly drawn) 7.53

Complete the entry with pKi for CN1C(=O)C(NC(=O)c2ncn(Cc3ccccc3)n2)CCn2nc(C(C)(C)O)cc21 (racemic) 6.31

Assign pKi to the following record: Cc1cc2n(n1)CC[C@H](NC(=O)c1nc3n(n1)[C@H](c1ccccc1F)CC3)C(=O)N2C 6.28

Report pKi, nothing else, for this compound: CN1C(=O)[C@@H](NC(=O)c2ncn(Cc3cccc(F)c3F)n2)CCn2nc(C(F)(F)F)cc21 7.89

---

- test_target: human RIP1 kinase domain (2-375) (Homo sapiens (Human))
- experiment_summary: biochemical
- Assay type: biochemical
- condition_description: tight-binding apparent inhibition constant; human RIP1 kinase domain (2-375) 50 nM, 50 uM ATP, 2 hours; read-out: Ki
measured_endpoint: pKi
Keep it numeric: pKi is minus log10 of the concentration in mol/L.

Return value of pKi for input O=C(N[C@H]1CCc2cc(F)cc(F)c2NC1=O)c1nc2n(n1)CC[C@H]2c1ccccc1 (single isomer, unassigned) [Example 628] , no commentary. 8.30

State, in one line, measured pKi of CN1C(=O)[C@@H](NC(=O)c2ncn(CC3(C)CCC3)n2)CCn2nc(C3CC3)cc21 [Example 561] 7.00

Give the reported pKi for this compound. CN1C(=O)[C@@H](NC(=O)c2ncn(CC3CCOC3)n2)CCn2nc(C3CC3)cc21 (some centres unmarked) [Example 480] 5.59

Kindly indicate its recorded pKi. Item: COc1ccccc1Cn1cnc(C(=O)N[C@H]2CCn3nc(C)cc3N(C)C2=O)n1 [Example 589] 7.32

Supply recorded pKi for Cc1cc2n(n1)CC[C@H](NC(=O)c1ncn(Cc3ccccc3Cl)n1)C(=O)N2C [Example 520] here. 8.22

Annotate the compound CN1C(=O)[C@@H](NC(=O)c2ncc3cnn(-c4c(F)cccc4F)c3n2)COc2ccccc21 [Example 595] with its measured pKi. 8.33

Recall and state the measured pKi for Cc1cc2n(n1)CC[C@H](NC(=O)c1ncn(Cc3ccccn3)n1)C(=O)N2C [Example 651] . 6.54

State, in one line, measured pKi of Cc1cc2n(n1)CC[C@H](NC(=O)c1ncn(Cc3cccc(Cl)c3Cl)n1)C(=O)N2C [Example 472] 8.29

---

Assignment: determine reported Ki for the given molecules.
- test_target: human RIP1 kinase domain (2-375) (Homo sapiens (Human))
- experiment_summary: biochemical
- Assay type: biochemical
- condition_description: human RIP1 kinase domain (2-375), 50 uM ATP, 2 hours incubation, Transcreener ADP assay; read-out: RIP1 Ki
Give the quantity in nM, number only.

Report the value of Ki obtained on human RIP1 kinase domain (2-375) (Homo sapiens (Human)) for CN1C(=O)[C@@H](NC(=O)c2cn(Cc3ccccc3)nn2)CCn2nc(C3CC3)cc21 (single isomer, unassigned) . 139

Would you please give the reported Ki of CN1C(=O)C(NC(=O)c2nnc(Cc3ccccc3)[nH]2)CCn2nc3c(c21)CSC3 (centres unmarked) with human RIP1 kinase domain (2-375) (Homo sapiens (Human))? 78.6

# assay system human RIP1 kinase domain (2-375) (Homo sapiens (Human)): give Ki of O=C(NC1CCn2ncc3c2N(CCO3)C1=O)c1ncn(Cc2ccccc2)n1 (centres unmarked) 232

Provide the reported Ki (system: human RIP1 kinase domain (2-375) (Homo sapiens (Human))) for CN1C(=O)C(NC(=O)c2nnc(Cc3ccccc3)[nH]2)CCCn2nc(C3CC3)cc21 (centres unmarked) 262

Provide measured Ki on human RIP1 kinase domain (2-375) (Homo sapiens (Human)) for Cc1cc2n(n1)CC[C@H](NC(=O)c1ncn(CC3CCCC3)n1)C(=O)N2C please. 36.3

Fill in Ki for CC(c1ccccc1)c1nnc(C(=O)N[C@H]2CCn3nccc3N(C)C2=O)[nH]1 (some centres unmarked) tested with human RIP1 kinase domain (2-375) (Homo sapiens (Human)). 189

Under human RIP1 kinase domain (2-375) (Homo sapiens (Human)): report Ki of CN1C(=O)[C@@H](NC(=O)c2cn(Cc3ccc(F)c(F)c3)cn2)CCn2nccc21 . 301

Give Ki only, for CN1C(=O)[C@@H](NC(=O)c2cc(Oc3ccccc3)ccn2)CCn2nccc21 , using human RIP1 kinase domain (2-375) (Homo sapiens (Human)) data. 189
